So I've got a bunch of binders here, and I need their ELISA O.D. value values.
Molecular target: Propionibacterium acnes (P. acnes) whole cells, surface antigen not identified (Propionibacterium acnes)
Assay: mono-scFv-phage ELISA on whole P. acnes
Numeric answer only, unit O.D. assumed.

Lab book: ELISA O.D. value of mono-scFv-phage No. 8 (scFv, V domains shown) VH: QVQLVQSGGGVVQPGGSLRLSCAASGFSFNDYAMHWVRQVPGKGLEWVSSISWNSRSTVYAASVEGRFSISRDNSKNSLYLQMNSLRAEDAAVYYCTTDLGVVPAAIYAFDIWGQGTMVTVSS VL: DIQMTQSPSVMSASVGDRVNITCRASQGITNWLAWYQQKPGKAPKLLISAASSLQSGVPSRFSGSGSGTDFTLTISSLQPDDFATYYCQQTATFQITFGQGTRLDIK noted as 2.08

Lab book: ELISA O.D. value of mono-scFv-phage No. 6 (scFv, V domains shown) VH: QVQLVESGGGVVRPGGSLRLSCTASGFTFDDHGMSWVRQAPGKGLEWVSTINLNGGSTAYADSVKGRFTISRDNAKNSLYLQMNSLRAEDTAVYYCSTRHLHHWGQGTLVTVSS VL: DIVMTQTPLSSPVTLGQPASISCRSSQSLVHSNGNTYLTWLQQRPGQPPRLLIHKISNRFSGVPDRFSGSGAGTDFTLKISRVEAEDVGVYYCVQAKQFPLTFGQGTRLEIK noted as 2.22

Lab book: ELISA O.D. value of mono-scFv-phage No. 3 (scFv, V domains shown) VH: QMQLVQSGAEVKKPGASVKVSCKASGYTFTDYYIHWVRQAPGQGLEWMGWINPNSGAPEFAQRFQGRVSMTRDASINTTYMELSGLRSEDTAVYYCVKGLEHAAGSAIFDRWGQGTMVTVSS VL: QTVVTQEPSFSVSPGGTVTLTCGLTSGSVSTSHFPSWYQQTPGQAPRTLIYFKDTRSSGVPDRFSGSILGNKAALTITGAQADDESDYYCALSMGSGIWVFGGGTKLTVL noted as 3.62

Lab book: ELISA O.D. value of mono-scFv-phage No. 10 (scFv, V domains shown) VH: QVQLVESGGGLIQPGGSLRLSCVASGFTVSSSFMSWVRLAPGKGLEWVALAYSGGNTYYADSVKGRFTVSRDDSSNTLYLQMNSLRAEDTAVYYCSCEGKAVSGSRDLHFEFWSPGTLVTVSS VL: SYELTQAPSLSVSPGQTANIICSGDNLRTKYVSWYQQKPGQAPVLVIYNDNDRPSGIPERFSGTNSGNTAALTISRVEAGDEADYYCQVWDSSSDHLIFGGGTKLTVL noted as 2.07
